Ref: ChEMBL document CHEMBL1154052

Target: Aminopeptidase N (Sus scrofa, UniProt P15145)
Sequence (P15145 whole entry): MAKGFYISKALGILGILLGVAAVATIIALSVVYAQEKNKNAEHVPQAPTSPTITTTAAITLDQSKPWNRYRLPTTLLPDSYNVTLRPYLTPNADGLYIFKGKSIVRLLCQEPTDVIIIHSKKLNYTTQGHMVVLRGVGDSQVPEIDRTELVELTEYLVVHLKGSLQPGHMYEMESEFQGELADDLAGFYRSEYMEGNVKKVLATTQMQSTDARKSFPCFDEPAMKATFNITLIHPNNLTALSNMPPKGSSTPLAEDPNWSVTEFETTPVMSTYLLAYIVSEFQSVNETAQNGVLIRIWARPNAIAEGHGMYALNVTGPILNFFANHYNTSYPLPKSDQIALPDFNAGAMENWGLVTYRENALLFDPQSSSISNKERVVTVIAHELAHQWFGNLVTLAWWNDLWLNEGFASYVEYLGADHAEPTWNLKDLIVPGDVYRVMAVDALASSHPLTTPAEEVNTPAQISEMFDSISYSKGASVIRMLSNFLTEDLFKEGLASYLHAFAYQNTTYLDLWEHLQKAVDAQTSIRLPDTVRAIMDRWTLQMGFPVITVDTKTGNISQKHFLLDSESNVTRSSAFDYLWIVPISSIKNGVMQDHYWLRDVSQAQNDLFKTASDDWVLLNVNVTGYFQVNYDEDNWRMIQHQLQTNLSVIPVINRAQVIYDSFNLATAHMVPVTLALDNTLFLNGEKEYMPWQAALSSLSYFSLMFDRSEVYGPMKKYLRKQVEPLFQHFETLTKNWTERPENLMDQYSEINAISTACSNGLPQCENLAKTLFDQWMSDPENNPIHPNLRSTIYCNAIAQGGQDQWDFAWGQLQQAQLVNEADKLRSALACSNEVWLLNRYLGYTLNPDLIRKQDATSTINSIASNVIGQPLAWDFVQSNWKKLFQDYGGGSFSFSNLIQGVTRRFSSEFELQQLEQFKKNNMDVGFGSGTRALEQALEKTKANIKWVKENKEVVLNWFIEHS
Entries are grouped by IC50 into these classes: group A = under 80 µM, group B = from 80 µM up to 200 µM, group C = 200 µM and over

Field: class (IC50) — entry: N=C(NCCC[C@H](NC(=O)/C=C/c1ccccc1)C(=O)NO)N[N+](=O)[O-]
group C

Field: class (IC50) — entry: N=C(NCCC[C@H](NC(=O)c1ccc(Cl)cc1)C(=O)NO)N[N+](=O)[O-]
group C

Field: class (IC50) — entry: N=C(NCCC[C@H](NC(=O)c1cccc([N+](=O)[O-])c1)C(=O)NO)N[N+](=O)[O-]
group A

Field: class (IC50) — entry: NC(=N[N+](=O)[O-])NCCC[C@H](NC(=O)Cc1ccccc1)C(=O)NO
group C

Field: class (IC50) — entry: NC(=N[N+](=O)[O-])NCCC[C@H](NC(=O)c1ccccc1Cl)C(=O)NO
group A

Field: class (IC50) — entry: Cc1ccc(S(=O)(=O)N[C@@H](CCCNC(N)=N[N+](=O)[O-])C(=O)NO)cc1
group B

Field: class (IC50) — entry: NC(=N[N+](=O)[O-])NCCC[C@H](NC(=O)c1cccs1)C(=O)NO
group B

* * *

Target: Aminopeptidase N (Sus scrofa)
measure name: log10 of IC50 (log10 of the value in µM)
Heads up, the numbers here are log10 of IC50 in µM units.

> print(dat)
                            compound.string  value
1  COc1cccc(C(=O)N[C@@H](CCCNC(=N)N[N+](=O)[O-])C(=O)NO)c1   1.22
2  N=C(NCCC[C@H](NC(=O)c1ccccc1I)C(=O)NO)N[N+](=O)[O-]   1.34
3  NC(=N[N+](=O)[O-])NCCC[C@H](NC(=O)c1ccc2ccccc2c1)C(=O)NO   1.16
4  N=C(NCCC[C@H](NC(=O)c1cccc(Cl)c1)C(=O)NO)N[N+](=O)[O-]   2.31
5  N=C(NCCC[C@H](NC(=O)c1ccc(Cl)c(Cl)c1)C(=O)NO)N[N+](=O)[O-]   1.53

Param readout = log10 of IC50; param system = Aminopeptidase N (Sus scrofa); param query = NC(=N[N+](=O)[O-])NCCC[C@H](NC(=O)c1ccc(Br)cc1)C(=O)NO ; response: value
2.65

Param readout = log10 of IC50; param system = Aminopeptidase N (Sus scrofa); param query = COc1ccc(C(=O)N[C@@H](CCCNC(N)=N[N+](=O)[O-])C(=O)NO)cc1OC ; response: value
1.43

Param readout = log10 of IC50; param system = Aminopeptidase N (Sus scrofa); param query = N=C(NCCC[C@H](NC(=O)c1ccc(Cl)cc1Cl)C(=O)NO)N[N+](=O)[O-] ; response: value
0.72

Param readout = log10 of IC50; param system = Aminopeptidase N (Sus scrofa); param query = Cc1cccc(C(=O)N[C@@H](CCCNC(=N)N[N+](=O)[O-])C(=O)NO)c1 ; response: value
1.63

* * *

Measured Ratio IC50 values are reported for all entries that follow.
Assay: Selectivity ratio of IC50 for MMP2 to IC50 for aminopeptidase N in pig kidney microsome
Reply with just the number.

Would you please look over these solved cases?
> print(dat)
                            compound.string  value
1  N=C(NCCC[C@H](NC(=O)c1ccc(Br)c([N+](=O)[O-])c1)C(=O)NO)N[N+](=O)[O-]   46.3
2  N=C(NCCC[C@H](NC(=O)c1ccccc1)C(=O)NO)N[N+](=O)[O-]    8.6
3  N=C(NCCC[C@H](NC(=O)c1ccc2ccccc2c1)C(=O)NO)N[N+](=O)[O-]    5.9
4  Cc1ccccc1C(=O)N[C@@H](CCCNC(=N)N[N+](=O)[O-])C(=O)NO    9.3
5  N=C(NCCC[C@H](NC(=O)c1ccc(Cl)cc1Cl)C(=O)NO)N[N+](=O)[O-]   65.8

For the next question, use this compound.
I am curious: what Ratio IC50 value has been reported for Cc1ccc(S(=O)(=O)N[C@@H](CCCNC(=N)N[N+](=O)[O-])C(=O)NO)cc1 ?
0.3

* * *

Experiment: Selectivity ratio of IC50 for MMP2 to IC50 for aminopeptidase N in pig kidney microsome
Measured Ratio IC50 values are reported for all entries that follow.
Reply with just the number.

Would you please look over these solved cases?
> print(dat)
                            compound.string  value
1  N=C(NCCC[C@H](NC(=O)c1ccc(Cl)cc1)C(=O)NO)N[N+](=O)[O-]    1.1
2  N=C(NCCC[C@H](NC(=O)c1ccc([N+](=O)[O-])cc1)C(=O)NO)N[N+](=O)[O-]   12.8
3  N=C(NCCC[C@H](NC(=O)c1ccc(Br)cc1)C(=O)NO)N[N+](=O)[O-]    1.1

I am curious: what Ratio IC50 value has been reported for N=C(NCCC[C@H](NC(=O)c1ccccc1Cl)C(=O)NO)N[N+](=O)[O-] ?
7.3

I am curious: what Ratio IC50 value has been reported for N=C(NCCC[C@H](NC(=O)c1ccccc1I)C(=O)NO)N[N+](=O)[O-] ?
8

I am curious: what Ratio IC50 value has been reported for COc1ccc(C(=O)N[C@@H](CCCNC(=N)N[N+](=O)[O-])C(=O)NO)cc1OC ?
12.8

I am curious: what Ratio IC50 value has been reported for COc1ccc(C(=O)N[C@@H](CCCNC(=N)N[N+](=O)[O-])C(=O)NO)cc1 ?
5.4

I am curious: what Ratio IC50 value has been reported for COc1cc(C(=O)N[C@@H](CCCNC(=N)N[N+](=O)[O-])C(=O)NO)cc(OC)c1OC ?
0.2

I am curious: what Ratio IC50 value has been reported for N=C(NCCC[C@H](NS(=O)(=O)c1ccccc1)C(=O)NO)N[N+](=O)[O-] ?
1.7

I am curious: what Ratio IC50 value has been reported for N=C(NCCC[C@H](NC(=O)Cc1ccccc1)C(=O)NO)N[N+](=O)[O-] ?
0.05

I am curious: what Ratio IC50 value has been reported for N=C(NCCC[C@H](NC(=O)c1cccc([N+](=O)[O-])c1)C(=O)NO)N[N+](=O)[O-] ?
2.3

I am curious: what Ratio IC50 value has been reported for COc1ccccc1C(=O)N[C@@H](CCCNC(=N)N[N+](=O)[O-])C(=O)NO ?
3.2

I am curious: what Ratio IC50 value has been reported for Cc1cccc(C(=O)N[C@@H](CCCNC(=N)N[N+](=O)[O-])C(=O)NO)c1 ?
14.6

I am curious: what Ratio IC50 value has been reported for N=C(NCCC[C@H](NC(=O)CCc1ccccc1)C(=O)NO)N[N+](=O)[O-] ?
4.9

I am curious: what Ratio IC50 value has been reported for N=C(NCCC[C@H](NC(=O)c1ccc(Cl)c(Cl)c1)C(=O)NO)N[N+](=O)[O-] ?
5.8

I am curious: what Ratio IC50 value has been reported for N=C(NCCC[C@H](NC(=O)/C=C/c1ccccc1)C(=O)NO)N[N+](=O)[O-] ?
0.04

I am curious: what Ratio IC50 value has been reported for N=C(NCCC[C@H](NC(=O)c1cccc(Cl)c1)C(=O)NO)N[N+](=O)[O-] ?
0.4

I am curious: what Ratio IC50 value has been reported for N=C(NCCC[C@H](NC(=O)c1cccs1)C(=O)NO)N[N+](=O)[O-] ?
2.6

I am curious: what Ratio IC50 value has been reported for COc1cccc(C(=O)N[C@@H](CCCNC(=N)N[N+](=O)[O-])C(=O)NO)c1 ?
9.1

* * *

Target: 72 kDa type IV collagenase (Homo sapiens, UniProt P08253)
Sequence (P08253 whole entry): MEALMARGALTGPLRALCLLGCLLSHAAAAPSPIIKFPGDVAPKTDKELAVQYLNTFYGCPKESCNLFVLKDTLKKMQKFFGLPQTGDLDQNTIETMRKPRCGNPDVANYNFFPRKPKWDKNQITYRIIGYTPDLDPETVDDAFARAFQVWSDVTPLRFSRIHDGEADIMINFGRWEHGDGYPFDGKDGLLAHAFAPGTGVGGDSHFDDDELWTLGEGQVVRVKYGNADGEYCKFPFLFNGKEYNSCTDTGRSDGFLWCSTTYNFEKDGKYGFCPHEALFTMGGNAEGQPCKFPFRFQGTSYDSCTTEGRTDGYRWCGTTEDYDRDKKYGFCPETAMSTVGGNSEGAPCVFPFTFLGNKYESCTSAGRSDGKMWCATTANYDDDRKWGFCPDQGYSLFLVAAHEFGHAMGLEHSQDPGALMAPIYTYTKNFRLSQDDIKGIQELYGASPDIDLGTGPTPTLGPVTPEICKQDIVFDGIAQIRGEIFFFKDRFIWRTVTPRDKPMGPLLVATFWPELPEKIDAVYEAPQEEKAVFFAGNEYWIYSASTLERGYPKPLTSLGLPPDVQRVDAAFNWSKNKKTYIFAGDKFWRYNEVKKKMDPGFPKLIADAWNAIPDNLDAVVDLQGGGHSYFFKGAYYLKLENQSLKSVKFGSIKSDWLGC
pIC50: −log10 of the molar value.
pIC50 of 4 or higher: label 1. Under 4: label 0.

Solved cases below.
> print(dat)
                            compound.string  classification
1  NC(=N[N+](=O)[O-])NCCC[C@H](NC(=O)Cc1ccccc1)C(=O)NO         label 1
2  Cc1ccc(S(=O)(=O)N[C@@H](CCCNC(N)=N[N+](=O)[O-])C(=O)NO)cc1         label 1
3  N=C(NCCC[C@H](NC(=O)c1ccc(Cl)cc1Cl)C(=O)NO)N[N+](=O)[O-]         label 0

I'd appreciate it if you could say whether N=C(NCCC[C@H](NC(=O)/C=C/c1ccccc1)C(=O)NO)N[N+](=O)[O-] has pIC50 at least equal to 4.
label 1

* * *

Target: 72 kDa type IV collagenase (Homo sapiens)
Measured pIC50 values are reported for all entries that follow.
// pIC50: -log10(molar conc.)

> print(dat)
                            compound.string                               test.system  measure.name  value
1  N=C(NCCC[C@H](NC(=O)c1ccc([N+](=O)[O-])cc1)C(=O)NO)N[N+](=O)[O-]  72 kDa type IV collagenase (Homo sapiens)         pIC50   3.69

I am curious: what pIC50 value has been reported for N=C(NCCC[C@H](NC(=O)c1ccccc1)C(=O)NO)N[N+](=O)[O-] ?
3.16
